System: Ba/F3 BCR-ABL1 E255V/T315I
Procedure details: Cell growth inhibition activity test, single agents and combinations (CellTiter-Glo, Chou-Talalay)
Assay type: cell-based
Conditions used: Mus musculus, BaF3; single agent; E255V/T315I; 72 hours; read-out: IC50
Property name: IC50 (nM)
Your answer is read as nM, so omit the unit and give the number.

Prompt line: Which IC50 value belongs to `O=C(Nc1ccc(OC(F)(F)Cl)cc1)c1cnc(N2CC[C@@H](F)C2)c(-c2cnccn2)c1` ?
Response line: 151

###

Procedure details: Study of blood-brain ratio after single oral dose
Type: in vivo
Conditions used: rat, brain; single oral dose 50 mg/kg; male SD rats
Property name: Cmax (ng/g)
Your answer is read as ng/g, so omit the unit and give the number.

Prompt line: Which Cmax value belongs to `O=C(Nc1ccc(OC(F)(F)Cl)cc1)c1cnc(N2CC[C@@H](F)C2)c(-c2cnccn2)c1` ?
Response line: 1130
